# Test system: HS 578T breast
# test: NCI-60 one-dose screen, 48 h (100 = growth as untreated, 0 = no growth, -100 = all killed)
# studyConditions: 10 µM
This is part of a sample that, as a whole, favours compounds with a hit. Of some 83,000 tested, about 20% had one in any assay.
Give growth for every item shown.
The reply should be a number in %, with the unit left off.

Which growth value is on record for CC(C)N(CCNc1nc(C(Cl)(Cl)Cl)nc2cc(Cl)ccc12)C(C)C ?
12

Which growth value is on record for COc1ccc(C2CC(c3ccc(N(C)C)cc3)=NN2c2ccc(S(N)(=O)=O)cc2)cc1 (centres undefined) ?
96.7

Which growth value is on record for COc1ccc(/C(=C2\O[C@@H]([C@H]3COC(C)(C)O3)[C@H]3OC(C)(C)O[C@@H]23)c2cc(OC)c(OC)c(OC)c2)cc1O ?
-22.2

Which growth value is on record for COc1ccc(-c2nn(-c3cccc(NC(=O)c4cc(C(F)(F)F)cc(C(F)(F)F)c4)c3)cc2-c2ccncc2)cc1Cl ?
71.5

---

Give growth for every item shown.
# Tested on: MALME-3M melanoma
# test: NCI-60 one-dose screen, 48 h (100 = growth as untreated, 0 = no growth, -100 = all killed)
# studyConditions: 10 µM
About 83,000 compounds went through this panel and 20% of them were active in at least one assay; those are over-represented in the sample as a whole.
The reply should be a number in %, with the unit left off.

Which growth value is on record for COc1cc(-c2cc(-c3cc4c([nH]c5ccccc54)c(-c4cc(OC)c(OC)c(OC)c4)n3)cc(-c3ccccc3)n2)cc(OC)c1OC ?
58.3

Which growth value is on record for CCN(CCCCCCCCCCN1CC(=O)N(CCCCCCCCCCN(CC)Cc2ccccc2OC)CC1=O)Cc1ccccc1OC ?
-83.6

Which growth value is on record for Nc1nc(N)c(NC(=O)CNc2ccc(C(=O)O)cc2)c(N)n1 ?
112

Which growth value is on record for Cc1ccc(C)c(C(O)(c2cc(C)ccc2C)C2(O)CCCCC2)c1 ?
91.7

Which growth value is on record for COc1ccc(Oc2nc(NC3CCCC3)nc(Sc3ccc(OC)cc3)n2)cc1 ?
69.6

Which growth value is on record for COc1cc(Cl)cc(-c2nn(-c3cccc(NC(=O)c4ccc(N5CCOCC5)c(C(F)(F)F)c4)c3)cc2-c2ccncc2)c1 ?
57.9

Which growth value is on record for Cc1ccc(S(=O)(=O)OCCN(CCOS(=O)(=O)c2ccc(C)cc2)c2c[nH]c(=O)[nH]c2=O)cc1 ?
117

Which growth value is on record for O=C(/C=C/c1cc2ccccc2[nH]c1=O)c1ccc2c(c1)OCO2 ?
78

---

# System: M14 melanoma
# test: NCI-60 one-dose screen, 48 h
# studyConditions: 10 µM
The panel holds about 83,000 compounds, 20% with a hit somewhere; the sample as a whole holds those more often. Active and inactive are the calls of the source. How the source made its calls: active means growth percent below 10; inactive means the rest.
Can you answer with just one of these options? YES for active, NO for inactive

Answer briefly: the call reported for COc1ccc(-c2nc(-c3nc4ccc(OC)cc4[nH]3)cc3c2[nH]c2ccccc23)cc1 in this assay.
NO

Answer briefly: the call reported for CCN1CCC2(CC1)OC(c1ccccc1)C(c1ccccc1)O2 (stereo not given) in this assay.
NO

Answer briefly: the call reported for N#Cc1ncc(-c2cc(F)c(F)c(F)c2)c(NC2CCCCCC2)n1 in this assay.
NO

Answer briefly: the call reported for O=C(O)C(SC(C(=O)O)c1ccccc1)c1ccccc1 (stereo not given) in this assay.
NO

Answer briefly: the call reported for COc1ccc(-c2nc3sc(-c4ccccc4)c(-c4ccccc4)n3c2/C=C/C(=O)c2ccccn2)cc1 in this assay.
NO

Answer briefly: the call reported for NC(=S)N=Nc1c(O)c2ccccc2c2ccccc12 in this assay.
YES

Answer briefly: the call reported for CN(C)CCNC(=O)c1cccn2c(=O)c3cc4ccccc4cc3nc12 in this assay.
YES

Answer briefly: the call reported for CN(CCc1ccccn1)c1ccccc1 in this assay.
NO

Answer briefly: the call reported for Cc1ccc(CC#N)cc1C in this assay.
NO

Answer briefly: the call reported for COc1ccc(-c2cc(-c3ccc(N(C)C)cc3)c(C#N)c(N3CCCC3)n2)cc1 in this assay.
NO

---

Give growth for every item shown.
# Test system: HCC-2998 colon
# test: NCI-60 one-dose screen, 48 h (100 = growth as untreated, 0 = no growth, -100 = all killed)
# studyConditions: 10 µM
Compounds without any hit were thinned out: in the full panel of roughly 83,000, 20% have a hit.
The reply should be a number in %, with the unit left off.

Which growth value is on record for CN(C)CCCn1c(=O)c2ccccc2c2cnc3[nH]ccc3c21 ?
30.3

Which growth value is on record for COC(=O)[C@@H]1[C@H](O)[C@H](C)[C@H](O)[C@@](C)(O)/C=C\C=C(C)C(=O)Nc2c(C)c(OC(C)=O)c3c(c2O)C(=O)C(C)=C2OCOC(=C23)C(C)=C[C@@](C)(O)[C@H](O)[C@@H](C)[C@H]1OC(C)=O ?
120

Which growth value is on record for CC(=O)CSC(C)=O ?
110

Which growth value is on record for CCN1CCCC1CNC(=O)c1ncc(-c2ccc(C(F)(F)F)cc2)c(NC2CCCCCC2)n1 (centres undefined) ?
72.4

Which growth value is on record for CCN(CC)CCC(CNc1c(C)cnc2cc(Cl)ccc12)c1ccc(Cl)cc1 (centres undefined) ?
26.7

Which growth value is on record for COc1ccc(-c2ccc(-c3ccc(C(=N)N)cn3)o2)cc1 ?
29.1

Which growth value is on record for CCOC(=O)N1C=CC2C=CC1C1C=CC=CC2N1C(=O)OCC (centres undefined) ?
82.1

Which growth value is on record for CCCCCCCCN(CCCCCCCC)CCCCCCCCCN1CCCc2cc(OC)ccc21 ?
93.2

Which growth value is on record for COc1ccc2c(c1)O/C(=C\c1ccc([N+](=O)[O-])s1)C2=O ?
11.9

Which growth value is on record for COc1ccc(-c2nc3sc(-c4ccc(OC)cc4)c(-c4ccc(OC)cc4)n3c2/C=C/c2ccc(C(C)C)cc2)cc1 ?
111

Which growth value is on record for COc1cc(-c2cc(/C=C3\C(=O)Nc4ccc(Cl)cc43)[nH]n2)cc(OC)c1OC ?
73.2

Which growth value is on record for O=C1/C(=C\c2ccccc2)CN(C(=O)c2ccccc2F)C/C1=C\c1ccccc1 ?
-84.1

Which growth value is on record for COc1cc2nc(Nc3cccc(NC(C)=O)c3)nc(N)c2cc1OC ?
113

Which growth value is on record for O=C(Nc1cccc(-n2cc(-c3ccncc3)c(-c3ccc(O)c(Cl)c3)n2)c1)c1cccc(C(F)(F)F)c1 ?
25.7

Which growth value is on record for COc1ccc(Nc2ncnc3c2c(SC)nn3-c2ccccc2)cc1 ?
103

Which growth value is on record for COc1ccc(/C=C2/CN(CCC#N)C/C(=C\c3ccc(OC)cc3)C2=O)cc1 ?
-82.3

Which growth value is on record for NC1=NC(=O)C(c2ccccc2)(c2ccccc2)S1 ?
108

Which growth value is on record for Cc1nc2ccccc2c(N)c1-c1cc(C)c2c(C)nc3ccccc3c2n1 ?
-35

Which growth value is on record for CCCCC(CCCCCC(CCCC)NCc1ccc2c(c1)OCO2)NCc1ccc2c(c1)OCO2 (centres undefined) ?
-100

Which growth value is on record for C#Cc1ccc(-n2c(/C=C/c3ccc4ccccc4c3)nc3ncccc3c2=O)cc1 ?
31.1

Which growth value is on record for Cc1cc(C)c(CCc2cc(C)c(C)cc2C)cc1C ?
101

Which growth value is on record for COc1cc(-c2cc(/C=C/C(=O)c3ccc(F)c(F)c3)[nH]n2)cc(OC)c1OC ?
87.1

Which growth value is on record for ClCC#CCSc1ncnc2c1ncn2CC#CCCl ?
-24.9

Which growth value is on record for O=C1Nc2ccccc2C1=NC1CCCCC1 ?
107

---

Give growth for every item shown.
# System: OVCAR-8 ovarian
# test: NCI-60 one-dose screen, 48 h (100 = growth as untreated, 0 = no growth, -100 = all killed)
# studyConditions: 10 µM
About 83,000 compounds went through this panel and 20% of them were active in at least one assay; those are over-represented in the sample as a whole. Calls of active or inactive are those of the source. The calls were made as follows: active = growth percent below 10; inactive = the rest.

Which growth value is on record for CNc1ccc(CSc2ccc(C)cc2)cc1 ?
91.1% (inactive)

Which growth value is on record for Oc1[nH]c2ccc(Cl)cc2c1/C=c1/ccc2c(c1)N=C(c1cccs1)N=2 ?
52.2% (inactive)

Which growth value is on record for O=C1N=NC2=C1c1c3ccccc3c(O)n1CC2 ?
101% (inactive)

---

# Test system: LOX IMVI melanoma
# test: NCI-60 one-dose screen, 48 h (100 = growth as untreated, 0 = no growth, -100 = all killed)
# studyConditions: 10 µM
The panel holds about 83,000 compounds, 20% with a hit somewhere; the sample as a whole holds those more often.
Give growth for every item shown.
The reply should be a number in %, with the unit left off.

Give recorded growth with LOX IMVI melanoma for the following compound: O=C1/C(=C\c2cn(C(=O)c3ccc(Cl)cc3)c3ccccc23)c2ccccc2N1C(=O)c1ccc(Cl)cc1
67.2

Give recorded growth with LOX IMVI melanoma for the following compound: COc1ccc(Nc2ccnc(NCCNc3ccnc4cc(Cl)ccc34)n2)cc1
8.82

Give recorded growth with LOX IMVI melanoma for the following compound: N#Cc1ncc(-c2ccc(C(F)(F)F)cc2)c(NCc2cc(C(F)(F)F)cc(C(F)(F)F)c2)n1
14.9

Give recorded growth with LOX IMVI melanoma for the following compound: CN(C)Cc1cn(-c2ncc(-c3ccc(C(F)(F)F)cc3)c(NC3CCCCCC3)n2)nn1
95.7

Give recorded growth with LOX IMVI melanoma for the following compound: O=C1Nc2ccc(Cl)cc2/C1=C\c1c(-c2ccc(Cl)cc2)nc2sc(C3CC3)nn12
26

Give recorded growth with LOX IMVI melanoma for the following compound: Nc1ccn(C2CC(O)C(CO)O2)c(=O)n1 (stereo not given)
104

Give recorded growth with LOX IMVI melanoma for the following compound: COc1ccc(-c2cc(-c3cccc(NS(C)(=O)=O)c3)nc(N)c2C#N)cc1
44.8

Give recorded growth with LOX IMVI melanoma for the following compound: COc1cc(Cl)cc(-c2nn(-c3cccc(NC(=O)Nc4cc(C(F)(F)F)cc(C(F)(F)F)c4)c3)cc2-c2ccncc2)c1
-24

Give recorded growth with LOX IMVI melanoma for the following compound: COc1ccccc1/C=C/C(=O)c1ccccc1
59.8

Give recorded growth with LOX IMVI melanoma for the following compound: COc1ccc2nc3cc(Cl)ccc3c(NCCNCC(C)O)c2c1 (stereo not given)
14.5

Give recorded growth with LOX IMVI melanoma for the following compound: O=C(Nc1ccc(CO)cc1)c1ccccc1Nc1ccnc(C(F)(F)F)c1
92.2

Give recorded growth with LOX IMVI melanoma for the following compound: COc1cc(-c2nc(-c3nnc(-c4ccc(F)c(Cl)c4)o3)c3ccccn23)cc(OC)c1OC
58.2

Give recorded growth with LOX IMVI melanoma for the following compound: COc1ccc(-c2nn(-c3cccc(NC(=O)c4ccc(N5CCOCC5)c(C(F)(F)F)c4)c3)cc2-c2ccncc2)cc1Cl
74.2

Give recorded growth with LOX IMVI melanoma for the following compound: CC12O[C@H](C[C@@H](O)[C@H]1O)n1c3ccccc3c3c4c(c5c6ccccc6n2c5c31)C(=O)N(CCCN)C4=O
1.96

Give recorded growth with LOX IMVI melanoma for the following compound: CC1CC(=O)OC(C)C1 (stereo not given)
102

Give recorded growth with LOX IMVI melanoma for the following compound: COc1cc(CNCCCCCCN2C(=O)c3cccc4cccc(c34)C2=O)ccc1O
36.3

Give recorded growth with LOX IMVI melanoma for the following compound: N=c1c2c(-c3ccccc3)c(-c3ccccc3)n(Cc3ccccc3)c2ncn1CCCO
13

Give recorded growth with LOX IMVI melanoma for the following compound: CC(C)(Cl)CCC1=C(Cl)C(=O)c2ccccc2C1=O
20.6

Give recorded growth with LOX IMVI melanoma for the following compound: CC/C(C)=C(\C)C(=O)O
92.7

Give recorded growth with LOX IMVI melanoma for the following compound: Cc1ccc(NC(=O)NC2CCCCC2)cc1
96.3
